Test system: HuM2e antibody 23K12
Type: binding, human
measured_endpoint: Signal (peptides that bind to 23K21 and 8I10)
Please reply with the value in numeric form only.

Given the substance 387 (SLLTEVETPIRTEWGCRCNDSSD; epitope peptide) [compound 387] , what is its reported Signal (peptides that bind to 23K21 and 8I10)?
1365

Can you check 343 (MSLLTEVGMSLLTEC; epitope peptide) [compound 343] next?
1630

Can you check 661 (SLLTEVETPIRQEWGCRCNDSSD; epitope peptide) [compound 661] next?
748

Can you check 697 (SLLTEVETPIRNEWGCRINDSSD; epitope peptide) [compound 697] next?
718

###

System: HuM2e antibody 23K12
Assay type: binding, human
Label yes (1) when Signal (peptides that bind to 23K21 and 8I10) is strictly below 1000; otherwise label no (0).

Signal (peptides that bind to 23K21 and 8I10) under 1000? Item: 613 (SLLTEVETPIRNEWGCRCNHSSD; epitope peptide) [compound 613]
yes (1)

Can you check 508 (MSLCTEVGCSLLTEV; epitope peptide) [compound 508] next?
no (0)

Can you check 287 (MSLLTEVGMSLLTEV; epitope peptide) [compound 287] next?
no (0)

Can you check 390 (CLLTEVGSLLTEV; epitope peptide) [compound 390] next?
no (0)

Can you check 418 (SLLTEVETPIRNEWGCRCNDWSD; epitope peptide) [compound 418] next?
yes (1)

###

System: HuM2e antibody 23K12
Type: binding, human
measured_endpoint: Signal (peptides that bind to 23K21 and 8I10)
Please reply with the value in numeric form only.

Given the substance 716 (SLLTEVETPIRNEFGCRCNDSSD; epitope peptide) [compound 716] , what is its reported Signal (peptides that bind to 23K21 and 8I10)?
702

Can you check 239 (CSLLTEVETCEVETPIRNEWGSRSNC; epitope peptide) [compound 239] next?
821

Can you check 653 (SLLTEVETIIRNEWGCRCNDSSD; epitope peptide) [compound 653] next?
756

Can you check 317 (MSLLTEVGMSLCTEV; epitope peptide) [compound 317] next?
1804

Can you check 498 (SLLTEMETPIRNEWGCRCNDSSD; epitope peptide) [compound 498] next?
1076

Can you check 161 (CPIRNEWGSRSNDSSDCSLLTEVETC; epitope peptide) [compound 161] next?
1206

Can you check 305 (CSCLCEVGMSLLTEC; epitope peptide) [compound 305] next?
1925

Can you check 494 (SLLTEQETPIRNEWGCRCNDSSD; epitope peptide) [compound 494] next?
1102

Can you check 644 (SLLTEVETPIRNEWGVRCNDSSD; epitope peptide) [compound 644] next?
764

Can you check 501 (SLLTEVETPIRNEWGCCCNDSSD; epitope peptide) [compound 501] next?
1065

Can you check 665 (SLLTEVETPFRNEWGCRCNDSSD; epitope peptide) [compound 665] next?
745

Can you check 615 (SLLTEVETPIRNEWGCDCNDSSD; epitope peptide) [compound 615] next?
810

Can you check 555 (SLLTEVETPIRNEWGCRCWDSSD; epitope peptide) [compound 555] next?
901

Can you check 437 (SLLTEVETPIR; epitope peptide) [compound 437] next?
1012

Can you check 692 (SLLTEVETPILNEWGCRCNDSSD; epitope peptide) [compound 692] next?
721

Can you check 306 (CSLLTECGMSLLTCV; epitope peptide) [compound 306] next?
1918

Can you check 592 (MSLCTEVGCSLLTEC; epitope peptide) [compound 592] next?
840

Can you check 528 (MSLLTCVGCSLLTEV; epitope peptide) [compound 528] next?
978

Can you check 548 (CSLLTECGSLCTEV; epitope peptide) [compound 548] next?
917
